assayed-target: UniProt:P36544
Positions of bridges follow the written chain, without caps; N, C: chain ends. Non-standard residues stand in square brackets, D forms with d. Residues, ends and D or L forms follow the SMILES beside them. Bip = N[C@@H](Cc1ccc(-c2ccccc2)cc1)C(=O)O; Hyp = O=C(O)[C@@H]1C[C@@H](O)CN1; Nle = CCCC[C@H](N)C(=O)O; Orn = NCCC[C@H](N)C(=O)O; Aib = CC(C)(N)C(=O)O
reported-metric: Kd (nM)
Numbers only, in nM.

# compound, assayed-target, Kd / nM
measured = [
    ("CCCC[C@H](NC(=O)[C@@H](NC(=O)[C@H]1CSSC[C@H](NC(=O)[C@H](CO)NC(=O)CN)C(=O)N[C@@H](CO)C(=O)N[C@H]([C@H](C)O)C(=O)N2CCC[C@H]2C(=O)N2CCC[C@H]2C(=O)N[C@@H](CO)C(=O)N1)C(C)C)C(=O)N[C@@H](Cc1ccc(O)cc1)C(=O)N[C@@H](CO)C(=O)O [AJ003-29] (H-GSCS[dT]PPS[dC]V[Nle]YS-OH; disulfide 3-9)", "UniProt:P36544", 674),
]

Give one value of Kd per listed compound.
1. CCCC[C@H](NC(=O)[C@@H](NC(=O)[C@H]1CSSC[C@H](NC(=O)[C@H](CO)NC(=O)CN)C(=O)N[C@@H](CO)C(=O)N[C@H]([C@H](C)O)C(=O)N2C[C@H](O)C[C@H]2C(=O)N2C[C@H](O)C[C@H]2C(=O)N[C@@H](CO)C(=O)N1)C(C)C)C(=O)N[C@@H](Cc1ccccc1)C(=O)N[C@@H](CCCN)C(N)=O [AJ003-37] (H-GSCS[dT][Hyp][Hyp]S[dC]V[Nle]F[Orn]-NH2; disulfide 3-9)
2. CCCC[C@H](NC(=O)[C@@H](NC(=O)[C@H]1CSSC[C@H](NC(=O)[C@H](CO)NC(=O)CN)C(=O)N[C@@H](CO)C(=O)N[C@H]([C@H](C)O)C(=O)N2C[C@H](O)C[C@H]2C(=O)N2C[C@H](O)C[C@H]2C(=O)N[C@@H](CO)C(=O)N1)C(C)C)C(=O)N[C@@H](Cc1c[nH]c2ccccc12)C(=O)N[C@@H](CCCN)C(N)=O [AJ003-40] (H-GSCS[dT][Hyp][Hyp]S[dC]V[Nle]W[Orn]-NH2; disulfide 3-9)
3. CCCC[C@H](NC(=O)[C@@H](NC(=O)[C@H]1CSSC[C@H](NC(=O)[C@H](CO)NC(=O)CN)C(=O)N[C@@H](CO)C(=O)N[C@H]([C@H](C)O)C(=O)N2C[C@H](O)C[C@H]2C(=O)N2C[C@H](O)C[C@H]2C(=O)NC(C)(C)C(=O)N1)C(C)C)C(=O)N[C@@H](Cc1ccc(-c2ccccc2)cc1)C(=O)N[C@@H](CCCN)C(N)=O [AJ003-36] (H-GSCS[dT][Hyp][Hyp][Aib][dC]V[Nle][Bip][Orn]-NH2; disulfide 3-9)

// result
1. 68.7
2. 46.5
3. 40.8

Just for reference, patent EP4725956A1 is where these values come from.
